- Test: Determination of aldehyde capture rate (nonenal as model aldehyde, HPLC quantification)
- Conditions: 135 minutes; 0.05 mM compound, 0.025 mM nonenal, room temperature
Quantity Name: Aldehyde consumption (100%)

* Cn1c2cc(Cl)ccc2c2cc(N)c(C(C)(C)O)nc21 | 17.18
* CC(C)(O)c1nc2c(cc1N)Oc1ccccc1O2 | 0.10
* CC(C)(C)OC(=O)N1c2ccccc2Oc2cc(C(C)(C)O)c(N)cc21 | 6.52
* Cn1c2ccccc2c2nc(C(C)(C)O)c(N)cc21 | 7.71
* CC(C)(O)c1nc2c(cc1N)oc1ccccc12 | 9.15
* CC(C)(O)c1cc2c(cc1N)N(Cc1ccccc1)c1ccccc1O2 | 14.37
* CC(C)(O)c1nc2oc3ccccc3c2cc1N | 24.57
* CN1c2ccccc2Oc2cc(N)c(C(C)(C)O)cc21 | 5.40
* CC(C)(O)c1cc2c(cc1N)Oc1nccnc1O2 | 16.24
* Cn1c2ccccc2c2cc(N)c(C(C)(C)O)nc21 | 43.48
* CC(C)(O)c1cc2c(cc1N)Oc1ccccc1O2 | 38.33
* CC(C)(O)c1cc2c(cc1N)Oc1cccnc1O2 | 19.40
* CC(C)(O)c1cc2c(cc1N)C(C)(C)c1ccccc1-2 | 36.30
* Cn1c2ccc(Cl)cc2c2cc(N)c(C(C)(C)O)nc21 | 6.03
* CC(C)(O)c1cc2oc3ccccc3c2cc1N | 8.30
* CC(C)(O)c1cc2c(cc1N)Oc1cc(Cl)ccc1O2 | 4.87
* CC(C)(O)c1cc2c(cc1N)Oc1ncccc1O2 | 23.50
* COC1c2ccccc2-c2cc(C(C)(C)O)c(N)cc21 (centres unmarked) | 3.77
* CC(C)(O)c1cc2c(cc1N)Oc1ccc(Cl)cc1O2 | 2.02
* Cn1c2ccccc2c2cc(N)c(C(C)(C)O)cc21 | 0.11
* CN1c2ccccc2Oc2cc(C(C)(C)O)c(N)cc21 | 15.06
* CC(C)(O)c1cc2c(cc1N)Oc1cc(F)ccc1O2 | 23.91
* CC(C)(O)c1cc2c(cc1N)Oc1ccc(F)cc1O2 | 6.92
